# study_target: Neurogenic locus notch homolog protein 2 (Homo sapiens) (UniProt Q04721)
# Sequence (Q04721 whole entry, looked up): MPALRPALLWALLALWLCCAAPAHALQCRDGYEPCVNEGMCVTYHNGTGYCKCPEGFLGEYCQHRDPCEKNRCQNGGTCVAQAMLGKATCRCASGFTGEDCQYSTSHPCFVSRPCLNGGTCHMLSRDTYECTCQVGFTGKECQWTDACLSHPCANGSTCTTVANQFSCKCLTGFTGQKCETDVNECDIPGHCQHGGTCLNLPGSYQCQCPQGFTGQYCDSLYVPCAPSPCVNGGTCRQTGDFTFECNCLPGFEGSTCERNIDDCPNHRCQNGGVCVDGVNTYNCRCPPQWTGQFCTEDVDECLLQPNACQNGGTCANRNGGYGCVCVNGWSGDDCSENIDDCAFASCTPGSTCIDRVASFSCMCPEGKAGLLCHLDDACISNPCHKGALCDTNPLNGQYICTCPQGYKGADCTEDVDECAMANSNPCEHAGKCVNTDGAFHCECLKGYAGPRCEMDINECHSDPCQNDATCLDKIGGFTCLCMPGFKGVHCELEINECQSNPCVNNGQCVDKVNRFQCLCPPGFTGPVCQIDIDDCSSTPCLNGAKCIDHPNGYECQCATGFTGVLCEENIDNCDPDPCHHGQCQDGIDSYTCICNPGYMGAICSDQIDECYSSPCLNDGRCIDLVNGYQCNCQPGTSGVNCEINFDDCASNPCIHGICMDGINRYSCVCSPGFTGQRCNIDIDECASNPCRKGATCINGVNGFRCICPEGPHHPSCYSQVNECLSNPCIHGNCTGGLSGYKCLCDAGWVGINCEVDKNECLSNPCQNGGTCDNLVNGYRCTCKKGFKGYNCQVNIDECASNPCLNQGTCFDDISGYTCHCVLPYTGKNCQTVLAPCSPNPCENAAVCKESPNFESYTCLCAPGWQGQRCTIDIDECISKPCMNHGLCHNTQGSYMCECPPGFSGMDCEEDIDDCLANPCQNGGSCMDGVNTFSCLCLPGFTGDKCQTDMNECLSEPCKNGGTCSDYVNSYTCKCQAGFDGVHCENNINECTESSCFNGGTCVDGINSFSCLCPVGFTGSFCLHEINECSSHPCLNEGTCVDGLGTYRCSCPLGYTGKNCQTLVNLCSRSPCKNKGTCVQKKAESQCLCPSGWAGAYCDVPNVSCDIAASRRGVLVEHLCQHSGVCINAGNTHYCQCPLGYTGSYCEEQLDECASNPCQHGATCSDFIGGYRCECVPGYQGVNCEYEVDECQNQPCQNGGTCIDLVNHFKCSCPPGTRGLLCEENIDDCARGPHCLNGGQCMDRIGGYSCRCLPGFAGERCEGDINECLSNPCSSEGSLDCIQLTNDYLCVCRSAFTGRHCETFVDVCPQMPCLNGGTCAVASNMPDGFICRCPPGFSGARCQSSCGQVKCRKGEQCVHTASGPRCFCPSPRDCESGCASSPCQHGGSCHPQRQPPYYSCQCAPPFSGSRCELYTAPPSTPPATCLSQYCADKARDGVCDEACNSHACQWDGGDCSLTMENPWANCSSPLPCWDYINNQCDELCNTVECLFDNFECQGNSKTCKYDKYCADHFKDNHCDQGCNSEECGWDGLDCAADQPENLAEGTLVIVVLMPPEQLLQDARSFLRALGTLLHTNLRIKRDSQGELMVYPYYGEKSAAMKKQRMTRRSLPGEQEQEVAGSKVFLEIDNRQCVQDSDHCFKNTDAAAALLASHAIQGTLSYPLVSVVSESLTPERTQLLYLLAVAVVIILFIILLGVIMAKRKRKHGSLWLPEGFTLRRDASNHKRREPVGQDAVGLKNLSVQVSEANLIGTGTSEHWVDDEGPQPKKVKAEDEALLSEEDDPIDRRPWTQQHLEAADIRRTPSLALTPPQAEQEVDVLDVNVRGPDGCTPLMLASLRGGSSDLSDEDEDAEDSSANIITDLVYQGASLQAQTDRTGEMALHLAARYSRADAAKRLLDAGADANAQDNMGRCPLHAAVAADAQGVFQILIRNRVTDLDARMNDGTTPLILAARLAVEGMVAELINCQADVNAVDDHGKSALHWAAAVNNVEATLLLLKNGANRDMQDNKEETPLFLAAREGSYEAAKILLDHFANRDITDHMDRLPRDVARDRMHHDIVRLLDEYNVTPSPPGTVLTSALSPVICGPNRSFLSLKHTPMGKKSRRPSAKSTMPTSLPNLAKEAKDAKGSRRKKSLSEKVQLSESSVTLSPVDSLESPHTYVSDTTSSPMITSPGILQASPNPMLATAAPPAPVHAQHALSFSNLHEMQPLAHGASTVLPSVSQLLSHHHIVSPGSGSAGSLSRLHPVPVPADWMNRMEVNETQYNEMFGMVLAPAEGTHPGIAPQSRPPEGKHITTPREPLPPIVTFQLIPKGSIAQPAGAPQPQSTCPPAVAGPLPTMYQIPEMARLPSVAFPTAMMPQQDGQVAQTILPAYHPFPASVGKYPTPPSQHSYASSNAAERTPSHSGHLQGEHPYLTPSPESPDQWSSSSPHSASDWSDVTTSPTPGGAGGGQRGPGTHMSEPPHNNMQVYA
# protocol_notes: Notch2 binders on small-molecule microarrays, primary screen, biochemical, small-molecule microarray, 635 nm fluorescence, stem cell growth factors (AID 1073)
# test_context: Notch2 binding, higher = more signal
// map composite z-score to label using band 1 (below 0.4), band 2 (0.4 to below 1), band 3 (1 or more)

compound	assigned_label
CCCC[C@@H]1C[C@H]1[C@@H](NC(=O)c1ccco1)c1ccc(Cl)cc1	band 3
O=C1c2ccccc2[C@](Cc2ccccc2I)(C(=O)NC2CC2)[C@H](c2ccc(CO)cc2)N1C1CCCCC1	band 3
CC(C)(C)OC(=O)CC[C@@]12N=C(c3ccc(OCCCO)cc3)O[C@@H]1c1ccccc1N(CCS(=O)(=O)c1ccccc1)C2=O	band 2

query: Kindly state the category for this compound: COc1ccc(C(=O)Nc2ccc(CN3C(=O)[C@@]4(O[C@@H](CCO)[C@H]([Si](C)(C)c5ccc(OC)cc5)[C@H]4C)c4ccccc43)cc2)cc1
result: band 2

query: Kindly state the category for this compound: COC(=O)[C@@]1(Cc2ccc(F)cc2)[C@H]2c3cc(C(=O)N(C)C)n(CC4CC4)c3C[C@H]2CN1C(=O)c1ccccc1
result: band 3

query: Kindly state the category for this compound: CN(C)C(=O)[C@@]1(Cc2ccccc2)N=C(c2ccc(OCCCO)cc2)O[C@H]1c1ccccc1N=[N+]=[N-]
result: band 3

query: Kindly state the category for this compound: C=CC[C@]1(C(=O)NCCCOC)N=C(c2ccc(OCCCO)cc2)O[C@H]1c1ccccc1N=[N+]=[N-]
result: band 3

query: Kindly state the category for this compound: C=CCOC(=O)[C@@H]1[C@H]2C(=O)O[C@H](c3ccccc3)[C@H](c3ccccc3)N2[C@H](c2ccc(OCCOC(=O)[C@@H]3C[C@@H]4C(=O)N5CCC[C@H]5C(=O)N4[C@@H]3c3ccc(O)cc3)cc2)[C@@]12C(=O)Nc1ccc(I)cc12
result: band 2

query: Kindly state the category for this compound: COc1ccc([Si](C)(C)[C@H]2[C@H](CCO)O[C@@]3(C(=O)N(C)c4c(Br)cc(C)cc43)[C@@H]2C)cc1
result: band 2

query: Kindly state the category for this compound: CC1CC/C=C\[C@H]2OC34C=CCN(Cn5nnc6ccccc65)C(=O)[C@H]3N(C(CO)C(C)C)C(=O)[C@@H]4C2C(=O)O1 (stereo not given in full)
result: band 1

query: Kindly state the category for this compound: COc1ccc(CCNC(=O)[C@@H]2c3ccccc3C(=O)N(C3Cc4ccccc4C3)[C@H]2c2ccc(CO)cc2)cc1
result: band 1

query: Kindly state the category for this compound: COc1ccc(C(O)C2C=CC3C(=O)N(c4ccccc4)C(=O)C3N2Nc2ccccc2F)cc1OCc1ccccc1 (stereo not given)
result: band 3

query: Kindly state the category for this compound: C=CC[C@@]1(C(=O)NCc2ccccc2)N=C(c2ccc(OCCCO)cc2)O[C@@H]1c1ccccc1N=[N+]=[N-]
result: band 3

query: Kindly state the category for this compound: CCOC(=O)[C@H]1C/C=C/C[C@H](C(=O)OCC)C(=O)O[C@H]2[C@@H](OC)O[C@H](CO)[C@@H](OC(=O)Nc3ccc(C#N)cc3)[C@@H]2OC1=O
result: band 1

query: Kindly state the category for this compound: CN1C(=O)C2C=CC(C(O)c3ccccc3)N(Nc3ccccc3)C2C1=O (stereo not given)
result: band 1
